Test system: Rabbit polymorphononuclear leukocytes (neutrophils)
Type: cell-based
condition-summary: concentration giving 50 percent of maximum activity; mean of at least three experiments; 30 minutes at 37° C.
Residues, ends and D or L forms follow the SMILES beside them. *: point of attachment. For = O=C*
Collected Chemotactic Activity ED50 ± SE values appear next to each entry.

Some compounds with recorded Chemotactic Activity ED50 ± SE:
>>> result_value("CSCC[C@H](NC=O)C(=O)N[C@@H](CCSC)C(=O)N[C@@H](Cc1ccccc1)C(=O)O [f--Met--Met--Phe--OH] (For-Met-Met-Phe-OH)")
"2.1 ± 0.49 × 10^-10 M"
>>> result_value("CSCC[C@H](NC=O)C(=O)N[C@@H](Cc1ccccc1)C(=O)O [f--Met--Phe--OH] (For-Met-Phe-OH)")
"4.1 ± 0.95 × 10^-7 M"

IN: Returns the measured Chemotactic Activity ED50 ± SE for the input compound. Input: CSCC[C@H](NC=O)C(=O)N[C@@H](CC(C)C)C(=O)N[C@@H](Cc1ccccc1)C(=O)O
OUT: 7.0 ± 1.7 × 10^-11 M

IN: Data request, read-out Chemotactic Activity ED50 ± SE, for CSCC[C@H](NC=O)C(=O)N[C@@H](CC(C)C)C(=O)O [f--Met--Leu--OH] (For-Met-Leu-OH)
OUT: 4.0 ± 0.45 × 10^-7 M

---

test-system: surface receptor of rabbit polymorphonuclear leukocytes (Oryctolagus cuniculus)
Construct: endogenous in cells
Sequence (Q05394 whole entry): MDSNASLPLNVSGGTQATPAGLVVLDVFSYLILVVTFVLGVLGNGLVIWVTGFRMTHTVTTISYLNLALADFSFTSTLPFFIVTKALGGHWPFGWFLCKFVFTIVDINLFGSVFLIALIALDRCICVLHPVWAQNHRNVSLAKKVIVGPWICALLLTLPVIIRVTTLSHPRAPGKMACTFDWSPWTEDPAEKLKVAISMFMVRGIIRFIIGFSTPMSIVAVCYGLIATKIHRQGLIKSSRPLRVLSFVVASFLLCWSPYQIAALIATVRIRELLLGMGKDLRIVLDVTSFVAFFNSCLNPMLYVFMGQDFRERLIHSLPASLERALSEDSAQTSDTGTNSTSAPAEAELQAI
protocol-summary: Inhibition of F-Nle-leu (3H)PHE binding to rabbit PMN
metric: pIC50
FYI, pIC50 means -log10 of a concentration in mol per litre.

IN: What pIC50 value was documented for this molecule, CSCC[C@H](NC=O)C(=O)N[C@@H](CC(C)C)C(=O)N[C@@H](Cc1ccccc1)C(=O)O ?
OUT: 9.30

---

System: neutrophils
Type: cell-based, rabbit
Non-standard residues stand in square brackets, D forms with d. Residues, ends and D or L forms follow the SMILES beside them. *: point of attachment. Nle = CCCC[C@H](N)C(=O)O; For = O=C*
metric: ED50 ± SE Lysosyme

>>> result_value("CSCC[C@H](NC=O)C(=O)N[C@@H](CCSC)C(=O)N[C@@H](Cc1ccccc1)C(=O)O [f--Met--Met--Phe--OH] (For-Met-Met-Phe-OH)")
"1.9 ± 0.4 × 10^-9 M"
>>> result_value("CSCC[C@H](NC=O)C(=O)N[C@@H](CC(C)C)C(=O)N[C@@H](Cc1ccccc1)C(=O)N[C@@H](CCCCN)C(=O)O [f--Met--Leu--Phe--Lys--OH] (For-MLFK-OH)")
"1.7 ± 0.5 × 10^-9 M"
>>> result_value("CSCC[C@H](NC(=O)[C@H](CCSC)NC(=O)[C@H](CCSC)NC(=O)[C@H](CCSC)NC=O)C(=O)O [f--Met--Met--Met--Met--OH] (For-MMMM-OH)")
"2.4 ± 0.34 × 10^-9 M"

// below: ED50 ± SE Lysosyme requested for another compound
IN: Give the reported ED50 ± SE Lysosyme for CCCC[C@H](NC=O)C(=O)N[C@@H](CC(C)C)C(=O)N[C@@H](Cc1ccccc1)C(=O)O [f--Nle--Leu--Phe--OH] (For-[Nle]-Leu-Phe-OH) (system: neutrophils).
OUT: 1.5 ± 0.2 × 10^-9 M

Origin of measurements: patent US4427660A
